Target: Cytochrome P450 1A2 (Homo sapiens)
Test: Cytochrome P450 Family 1 Subfamily A Member 2 (CYP1A2) small molecule antagonists: luciferase reporter qHTS assay (AID 1671199); further: nearly all actives have a fitted effect of over 50% in size
Settings: P450-Glo CYP1A2 enzyme, luciferin luminescence, 1 h; series mostly up to 53 µM
Records with an inconclusive call do not appear. Active and inactive are the calls of the source. The call rests on the fitted dose curve; in most records, active means well fitted inhibition curve with a large enough effect in the repeat runs; inconclusive means weak or mixed curves; inactive means no such curve, though single readings can be large or run the other way.
Thanks in advance; please answer with one of these: T (active), F (inactive)

Solved entries:
CC(=O)NCCCCCC(=O)O    F
COP(=O)(OC)OC(c1ccc(Cl)cc1)P(=O)(OC)OC (configuration not stated)    F

# lookup: test call for O=C(O)Cc1cn(-c2ccccc2)nc1-c1ccc(Cl)cc1
F

Check the results log: what was the call for CC1(C)S[C@@H]2[C@H](N=CN3CCCCCC3)C(=O)N2[C@H]1C(=O)O ?
F

Test call, this molecule: CC(C)=O
F

Outcome logged for CN(CCOc1ccc(NS(C)(=O)=O)cc1)CCc1ccc(NS(C)(=O)=O)cc1 in this assay:
F

# lookup: test call for CC(C)OC(=O)CCCCC(=O)OC(C)C
F

What did the test return for Cc1cc(Cl)c(C)cc1Cl ?
F

# fetch the recorded call for C=C(C)C(=O)OCCNC(C)(C)C here
T

Call for entry CCOCCOC(=O)/C=C/c1ccc(OC)cc1 :
T

What is the recorded call for this molecule in the test? CCO[Si](CCCS)(OCC)OCC
F

---

Assay: qHTS assay to test for compound auto fluorescence at 590 nm (red) in HepG2 cell free culture (AID 720684); further: on the % scale 0 is the no-effect control and ±100 the full control effect
Settings: cell-free medium autofluorescence, red 540/590 nm; series mostly up to 91.3 µM
Activity calls are given as the source filed them. Calls come from the whole dose curve; as a rule, active = well fitted curve in the direction sought with a large enough effect in the repeat runs; inconclusive = weak or mixed curves; inactive = flat fitted curve, though single readings scatter.
observed-property: fluorescence, % of Rose Bengal

Example entries begin here.
CC(C)(C)c1cc(CCC(=O)NN)cc(C(C)(C)C)c1O    inactive
CCN(C)C(=O)Oc1cccc([C@H](C)N(C)C)c1    inactive
C[C@@H](O)[C@H]1C(=O)N2C(C(=O)O)=C(SCCN=CN)C[C@H]12    0.208% [at 18.6 µM] (inactive)
COC(=O)CCc1ccc(OCC(O)CNC(C)C)cc1 (centres undefined)    inactive
COc1ccc2c(c1)C(=O)N(CCc1ccc(S(=O)(=O)NC(=O)NC3CCCCC3)cc1)C(=O)C2(C)C    -0.0384% [at 18.6 µM] (inactive)
COc1cc(NS(=O)(=O)c2ccc(N)cc2)nc(OC)n1    0.441% [at 18.6 µM] (inactive)

fluorescence, % of Rose Bengal for COCCOCCOCCOCCO ?
inactive

Look up fluorescence, % of Rose Bengal for this compound: CCCCNC1CC(C)(C)NC(C)(C)C1
inactive

State the recorded fluorescence, % of Rose Bengal for this entry: Cc1ccc2c(c1)OCC(=O)CO2
inactive

Param item = CC(C)N(c1ccccc1)C(C)C ; retrieve measured fluorescence, % of Rose Bengal.
inactive

Fill blank: measured fluorescence, % of Rose Bengal of the compound C=C1CC/C=C(\C)CC[C@@H]2[C@@H]1CC2(C)C is ____.
inactive

Give the measured fluorescence, % of Rose Bengal of CCO[Si](CCCS)(OCC)OCC .
inactive

// returns reported fluorescence, % of Rose Bengal for input CN(C)c1ccc(C=O)cc1
inactive

# get_value(readout='fluorescence, % of Rose Bengal', item= O=P(O)(O)OP(=O)(O)O )
inactive
